Each item that follows carries a reported TGI.
system: ACHN renal; assay: NCI tumour cell line growth inhibition, 48 h

Some solved entries appear below for comparison.
# compound, tested_target, TGI
data = [
    ("CC[C@]12C=CCN3CCC4(c5cc(N=Nc6ccccc6)c(OC)cc5N(C)[C@H]4[C@@](O)(C(=O)OC)[C@@H]1OC(C)=O)[C@@H]32 (some centres undefined)", "ACHN renal", "30.1 µM"),
    ("CC(C)[C@@H]1C=C(c2ccccc2)c2ccccc2C1C(C#N)(C#N)C(C)C (some centres undefined)", "ACHN renal", "> 100 µM"),
    ("O=C(N/N=C\\c1cccc2ccccc12)Nc1ccc([N+](=O)[O-])cc1", "ACHN renal", "> 72.7 µM"),
    ("C=CN1C(=O)OC(c2ccccc2)C1c1ccccc1 (centres undefined)", "ACHN renal", "> 100 µM"),
    ("COc1ccc(C2(c3ccc(OC)cc3)OC(=O)c3cccc4cccc2c34)cc1", "ACHN renal", "> 100 µM"),
]

Prompt: I am curious: what TGI value has been reported for CCOC(=O)C1N(S(=O)(=O)c2ccc(C)cc2)CCC12c1ccccc1N(C(C)=O)C2C(/C=C/C(=O)OC)=C/C(=O)OC (centres undefined) ?
Response: > 100 µM

Prompt: Could you do the same for O=C(NCc1cccnc1)/C(=C\c1ccc(Br)cc1)S(=O)(=O)c1ccccc1 , please?
Response: 1.97 µM

Source listed as PubChem BioAssay (NCI).
